- System: T1, MazF_(E24A) (E. coli toxin MazF with glutamic acid 24 replaced with alanine, His6 tag removed) (E. coli, UniProt P0AE70 1-111, E24A)
- T1 construct: For NMR the same construct was 15N or 15N/13C labelled; also called the toxin; source: E. coli BL21 (DE3) RIL, purified (Ni-NTA, TEV cleavage, second Ni-NTA, SEC); not shown: His6, N-terminal, cleaved
- T1 sequence: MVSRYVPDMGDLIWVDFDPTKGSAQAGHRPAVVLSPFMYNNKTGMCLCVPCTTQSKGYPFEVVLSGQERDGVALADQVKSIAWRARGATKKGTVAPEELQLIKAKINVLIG
- Assay remarks: ITC; SamF (225 μM) in the syringe, 20 injections of 15 μL into 28 μM MazF_(E24A) in the cell; 30 mM NaHPO4, 4 mM NH4HCO3, 60 mM NaCl, 0.3 mM EDTA, 2.4 mM DTT, pH about 7.10; one set of sites model; average of two independent experiments
- Condition info: both partners purified
Measured metric: Kd (µM)
Answers are plain numbers, in µM.

input: Consider the binder Ac-SHLFWAQFDEYF-NH2 (also called synthetic SamF; the synthetic peptide; source: synthetic peptide (microwave-assisted solid phase, RP-HPLC purified)) [Small Antitoxin of MazF (SamF), synthetic peptide Ac-SHLFWAQFDEYF-NH2] . State its measured Kd.
output: 2.5
